# Test system: Enterococcus faecalis
# measurement.description: Minimum inhibition concentration against Enterococcus faecalis
# Format: functional
observation.type: MIC (µg/mL)
Give bare numbers, in µg/mL.

Example compounds with recorded MIC:
>>> reading("C[C@H]1c2ccc(-c3ccccc3)c(O)c2C(=O)C2=C(O)[C@]3(O)C(O)=C(C(N)=O)C(=O)[C@@H](N(C)C)C3[C@@H](O)C21 (some centres not stated)")
1.56
>>> reading("C[C@H]1c2ccc(-c3ccc([N+](=O)[O-])cc3)c(O)c2C(=O)C2=C(O)[C@]3(O)C(O)=C(C(N)=O)C(=O)[C@@H](N(C)C)C3[C@@H](O)C21 (some centres not stated)")
0.78
>>> reading("C[C@H]1c2ccc(-c3ccc(N)cc3)c(O)c2C(=O)C2=C(O)[C@]3(O)C(O)=C(C(N)=O)C(=O)[C@@H](N(C)C)C3[C@@H](O)C21 (some centres not stated)")
3.12
>>> reading("C[C@H]1c2cccc(O)c2C(=O)C2=C(O)[C@]3(O)C(=O)C(C(N)=O)=C(O)[C@@H](N(C)C)[C@@H]3[C@@H](O)[C@@H]21.O")
6.25

Enquiry: For C#Cc1ccc2c(c1O)C(=O)C1=C(O)[C@]3(O)C(O)=C(C(N)=O)C(=O)[C@@H](N(C)C)C3[C@@H](O)C1[C@H]2C (some centres not stated) , write its MIC.
Return: 0.78
